Parameter: Percent Effect. Scope: all listed entries.
target: Shiga toxin 2 (Escherichia coli O157:H7) (UniProt P09385+P09386); test: E. coli 0.157:H7 Shiga Toxin SOP - stx2 screening assay; assay type: functional; design: scale not given: direction of the effect not stated beside the values; conditions: 30 µM

# compound, target_entity, Percent Effect, %
measured = [
    ("O=C(NC1CCCC1)N1CCCC(c2nccn2Cc2ccncc2)C1 (stereo unspecified)", "Shiga toxin 2 (Escherichia coli O157:H7) (UniProt P09385+P09386)", 12.8),
    ("CC(O)CN1CCN(C(=O)c2ccc(N(C)C)nn2)CC1 (stereo unspecified)", "Shiga toxin 2 (Escherichia coli O157:H7) (UniProt P09385+P09386)", -70.5),
    ("Cc1c[nH]c(CN(C)C(=O)C2CC(=O)N(Cc3ccncc3)C2)n1 (stereo unspecified)", "Shiga toxin 2 (Escherichia coli O157:H7) (UniProt P09385+P09386)", -32.5),
    ("CN1CCN(CC2CC2)C(=O)c2cnc(N3CCCCC3)nc21", "Shiga toxin 2 (Escherichia coli O157:H7) (UniProt P09385+P09386)", -8.64),
    ("c1ccc(Cn2cc3c(n2)C(COCC2CC2)OCC3)nc1 (stereo unspecified)", "Shiga toxin 2 (Escherichia coli O157:H7) (UniProt P09385+P09386)", -12.1),
    ("CC(C)c1nnc2n1CC(CNCc1ccncc1)CC2 (stereo unspecified)", "Shiga toxin 2 (Escherichia coli O157:H7) (UniProt P09385+P09386)", -14.7),
]

----------
target: Aspartate--tRNA(Asp/Asn) ligase (Mycobacterium tuberculosis (strain ATCC 25618 / H37Rv)) (UniProt P9WFW3); assay: Assay for Asp RNA synthetase-1 from Mycobacterium tuberculosis; type: functional; parameters: scale not given: direction of the effect not stated beside the values; details: 30 µM; note: in the data most compounds retested in dose-response had high values
Sequence (P9WFW3 whole entry): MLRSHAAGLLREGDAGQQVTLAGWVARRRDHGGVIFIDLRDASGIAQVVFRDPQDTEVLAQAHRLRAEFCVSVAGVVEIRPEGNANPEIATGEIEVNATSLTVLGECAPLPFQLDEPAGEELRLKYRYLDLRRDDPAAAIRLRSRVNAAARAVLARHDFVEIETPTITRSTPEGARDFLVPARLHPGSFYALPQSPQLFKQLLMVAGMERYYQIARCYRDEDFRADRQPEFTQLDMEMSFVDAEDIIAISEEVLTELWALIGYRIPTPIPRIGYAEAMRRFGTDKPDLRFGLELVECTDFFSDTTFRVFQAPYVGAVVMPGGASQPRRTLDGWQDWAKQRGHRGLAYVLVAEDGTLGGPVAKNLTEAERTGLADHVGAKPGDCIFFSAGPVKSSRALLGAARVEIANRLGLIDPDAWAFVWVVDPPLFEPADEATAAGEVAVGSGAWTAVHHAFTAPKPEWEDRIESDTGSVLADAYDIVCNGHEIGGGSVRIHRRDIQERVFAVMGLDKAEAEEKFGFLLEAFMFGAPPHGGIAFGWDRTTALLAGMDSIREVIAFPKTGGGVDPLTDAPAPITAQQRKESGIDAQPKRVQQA
Percent Effect overview
measure: Percent Effect (%)

# compound, unit_of_measurement, observed_measurement
rows = [
    ("Cc1cc(CN2CCN(C(=O)C(C)C)[C@@H]3CS(=O)(=O)C[C@@H]32)ccc1F", "%", 2.51),
    ("CC(C)c1nc2c(n1C)CCN(CC(=O)Nc1nccs1)C2", "%", -1.5),
    ("CN1CCCN(C[C@@H]2CN(C(=O)CCC3CCCC3)C[C@@H]2CO)CC1", "%", 6.99),
    ("OC(COc1ccccc1)CN1CCc2c(ncn2C2CC2)C1 (stereo unspecified)", "%", -7.92),
    ("CN(Cc1ccccn1)C(=O)[C@]12COC[C@H]1CN(Cc1cnn(C)c1)C2", "%", -0.844),
    ("Cc1ccc(C)c(-c2csc(N)c2C#N)c1", "%", 2.35),
    ("Cc1ccc(S(=O)(=O)N2CCc3nc(C4CCNCC4)ncc3C2)cc1", "%", -1.21),
    ("CCC1CN(CCC(=O)N(C)C)CCN1CCOC (stereo unspecified)", "%", 2.89),
    ("CCc1noc(CN2CCCC2c2noc(C3CC3)n2)n1 (stereo unspecified)", "%", 0.459),
    ("CC(C)CN1CCC2(CCN(Cc3ccsc3)CC2)C1=O", "%", -5.3),
    ("O=C1CN(Cc2nnc(-c3ccccc3Br)o2)CCN1", "%", -4.51),
    ("Cc1cc(CN2CCN(C(=O)c3sccc3C3CC3)CC2)on1", "%", 0.922),
    ("O[C@]1(c2ccccn2)CC[C@@H]2CN(Cc3cccc4ncccc34)C[C@@H]21", "%", 0.581),
    ("O=C([C@H]1CN(CCc2ccccc2)C[C@H]2OCC[C@@H]12)N1CCCO1", "%", 1.78),
    ("CCOc1ncccc1C(=O)NCCN(CC)C1CC1", "%", 0.335),
    ("CC(C)Oc1ncccc1CNC(=O)C1CCCN(C(=O)C2CC2)C1 (stereo unspecified)", "%", -4.79),
    ("Cc1sc(NC(=O)CN(C)S(C)(=O)=O)c(C#N)c1C", "%", 1.76),
    ("CC(NC(=O)Cn1cccn1)c1ccc2c(c1)OCCCO2 (stereo unspecified)", "%", -2.88),
    ("CCc1ncc2c(n1)CN(Cc1nc(C)c(C)o1)CC2", "%", 0.259),
    ("Cn1c(NCC(O)c2ccc(F)cc2F)c(C#N)c(=O)n(C)c1=O (stereo unspecified)", "%", -5.91),
    ("O=C(c1ccc(OCC2CC2)nc1)N1CCCC(n2ccnc2)C1 (stereo unspecified)", "%", -9.61),
    ("CCc1nccn1C1CCCN(C(=O)c2ccc3[nH]c(=O)[nH]c3c2)C1 (stereo unspecified)", "%", -9.98),
    ("COCC1c2nnn(CC3CC3)c2CCN1C(=O)c1cccc(F)c1 (stereo unspecified)", "%", -5.71),
    ("Cc1cnn(CC2CCCN2C(=O)c2cc(Cl)ccc2F)c1 (stereo unspecified)", "%", 1.32),
    ("Cc1nnc(Nc2cccc(C3CCN(CCO)CC3)n2)s1", "%", -2.1),
    ("Cc1ccccc1Cc1cnc(NC(=O)C2CNC(=O)N2)s1 (stereo unspecified)", "%", 6.1),
]
